- TEST SETTINGS: in n-butyl acetate, 308.15 K
ASSAY METRIC: solubility (mole fraction)
Kindly provide the number alone.

Looking up `Cc1nc2n(c(=O)c1CCN1CCC(c3noc4cc(F)ccc34)CC1)CCCC2` , I see its solubility (mole fraction) listed as 0.00341

###

- TEST SETTINGS: in acetone, 303.15 K
ASSAY METRIC: solubility (mole fraction)
Kindly provide the number alone.

Looking up `Cc1nc2n(c(=O)c1CCN1CCC(c3noc4cc(F)ccc34)CC1)CCCC2` , I see its solubility (mole fraction) listed as 0.00251

###

- TEST SETTINGS: in methyl acetate, 283.15 K
ASSAY METRIC: solubility (mole fraction)
Kindly provide the number alone.

Looking up `Cc1nc2n(c(=O)c1CCN1CCC(c3noc4cc(F)ccc34)CC1)CCCC2` , I see its solubility (mole fraction) listed as 0.00153

###

- TEST SETTINGS: in methanol, 288.15 K
ASSAY METRIC: solubility (mole fraction)
Kindly provide the number alone.

Looking up `Cc1nc2n(c(=O)c1CCN1CCC(c3noc4cc(F)ccc34)CC1)CCCC2` , I see its solubility (mole fraction) listed as 0.00273

###

- TEST SETTINGS: in ethanol, 288.15 K
ASSAY METRIC: solubility (mole fraction)
Kindly provide the number alone.

Looking up `Cc1nc2n(c(=O)c1CCN1CCC(c3noc4cc(F)ccc34)CC1)CCCC2` , I see its solubility (mole fraction) listed as 0.00133

###

- TEST SETTINGS: in ethyl acetate, 278.15 K
ASSAY METRIC: solubility (mole fraction)

Looking up `Cc1nc2n(c(=O)c1CCN1CCC(c3noc4cc(F)ccc34)CC1)CCCC2` , I see its solubility (mole fraction) listed as 0.00113

###

- TEST SETTINGS: in isopropanol, 293.15 K
ASSAY METRIC: solubility (mole fraction)
Kindly provide the number alone.

Looking up `Cc1nc2n(c(=O)c1CCN1CCC(c3noc4cc(F)ccc34)CC1)CCCC2` , I see its solubility (mole fraction) listed as 0.000853

###

- TEST SETTINGS: in isobutyl acetate, 303.15 K
ASSAY METRIC: solubility (mole fraction)
Kindly provide the number alone.

Looking up `Cc1nc2n(c(=O)c1CCN1CCC(c3noc4cc(F)ccc34)CC1)CCCC2` , I see its solubility (mole fraction) listed as 0.00226

###

- TEST SETTINGS: in isopropanol, 278.15 K
ASSAY METRIC: solubility (mole fraction)
Kindly provide the number alone.

Looking up `Cc1nc2n(c(=O)c1CCN1CCC(c3noc4cc(F)ccc34)CC1)CCCC2` , I see its solubility (mole fraction) listed as 0.00047

###

- TEST SETTINGS: in sec-butanol, 313.15 K
ASSAY METRIC: solubility (mole fraction)
Kindly provide the number alone.

Looking up `Cc1nc2n(c(=O)c1CCN1CCC(c3noc4cc(F)ccc34)CC1)CCCC2` , I see its solubility (mole fraction) listed as 0.00987

###

- TEST SETTINGS: in n-propyl acetate, 308.15 K
ASSAY METRIC: solubility (mole fraction)
Kindly provide the number alone.

Looking up `Cc1nc2n(c(=O)c1CCN1CCC(c3noc4cc(F)ccc34)CC1)CCCC2` , I see its solubility (mole fraction) listed as 0.00357

###

- TEST SETTINGS: in n-propyl acetate, 298.15 K
ASSAY METRIC: solubility (mole fraction)
Kindly provide the number alone.

Looking up `Cc1nc2n(c(=O)c1CCN1CCC(c3noc4cc(F)ccc34)CC1)CCCC2` , I see its solubility (mole fraction) listed as 0.00242

###

- TEST SETTINGS: in methanol, 313.15 K
ASSAY METRIC: solubility (mole fraction)
Kindly provide the number alone.

Looking up `Cc1nc2n(c(=O)c1CCN1CCC(c3noc4cc(F)ccc34)CC1)CCCC2` , I see its solubility (mole fraction) listed as 0.00787

###

- TEST SETTINGS: in n-propyl acetate, 303.15 K
ASSAY METRIC: solubility (mole fraction)
Kindly provide the number alone.

Looking up `Cc1nc2n(c(=O)c1CCN1CCC(c3noc4cc(F)ccc34)CC1)CCCC2` , I see its solubility (mole fraction) listed as 0.00288

###

- TEST SETTINGS: in sec-butanol, 298.15 K
ASSAY METRIC: solubility (mole fraction)
Kindly provide the number alone.

Looking up `Cc1nc2n(c(=O)c1CCN1CCC(c3noc4cc(F)ccc34)CC1)CCCC2` , I see its solubility (mole fraction) listed as 0.00464

###

- TEST SETTINGS: in ethanol, 313.15 K
ASSAY METRIC: solubility (mole fraction)
Kindly provide the number alone.

Looking up `Cc1nc2n(c(=O)c1CCN1CCC(c3noc4cc(F)ccc34)CC1)CCCC2` , I see its solubility (mole fraction) listed as 0.00427

###

- TEST SETTINGS: in n-propyl acetate, 283.15 K
ASSAY METRIC: solubility (mole fraction)

Looking up `Cc1nc2n(c(=O)c1CCN1CCC(c3noc4cc(F)ccc34)CC1)CCCC2` , I see its solubility (mole fraction) listed as 0.00147

###

- TEST SETTINGS: in n-butanol, 288.15 K
ASSAY METRIC: solubility (mole fraction)

Looking up `Cc1nc2n(c(=O)c1CCN1CCC(c3noc4cc(F)ccc34)CC1)CCCC2` , I see its solubility (mole fraction) listed as 0.00225

###

- TEST SETTINGS: in n-propyl acetate, 313.15 K
ASSAY METRIC: solubility (mole fraction)

Looking up `Cc1nc2n(c(=O)c1CCN1CCC(c3noc4cc(F)ccc34)CC1)CCCC2` , I see its solubility (mole fraction) listed as 0.00424

###

- TEST SETTINGS: in n-propyl acetate, 278.15 K
ASSAY METRIC: solubility (mole fraction)
Kindly provide the number alone.

Looking up `Cc1nc2n(c(=O)c1CCN1CCC(c3noc4cc(F)ccc34)CC1)CCCC2` , I see its solubility (mole fraction) listed as 0.00116

###

- TEST SETTINGS: in methanol, 293.15 K
ASSAY METRIC: solubility (mole fraction)
Kindly provide the number alone.

Looking up `Cc1nc2n(c(=O)c1CCN1CCC(c3noc4cc(F)ccc34)CC1)CCCC2` , I see its solubility (mole fraction) listed as 0.00331

###

- TEST SETTINGS: in methanol, 283.15 K
ASSAY METRIC: solubility (mole fraction)
Kindly provide the number alone.

Looking up `Cc1nc2n(c(=O)c1CCN1CCC(c3noc4cc(F)ccc34)CC1)CCCC2` , I see its solubility (mole fraction) listed as 0.00226

###

- TEST SETTINGS: in methyl acetate, 288.15 K
ASSAY METRIC: solubility (mole fraction)

Looking up `Cc1nc2n(c(=O)c1CCN1CCC(c3noc4cc(F)ccc34)CC1)CCCC2` , I see its solubility (mole fraction) listed as 0.0018

###

- TEST SETTINGS: in n-butanol, 313.15 K
ASSAY METRIC: solubility (mole fraction)
Kindly provide the number alone.

Looking up `Cc1nc2n(c(=O)c1CCN1CCC(c3noc4cc(F)ccc34)CC1)CCCC2` , I see its solubility (mole fraction) listed as 0.00792

###

- TEST SETTINGS: in methyl acetate, 303.15 K
ASSAY METRIC: solubility (mole fraction)
Kindly provide the number alone.

Looking up `Cc1nc2n(c(=O)c1CCN1CCC(c3noc4cc(F)ccc34)CC1)CCCC2` , I see its solubility (mole fraction) listed as 0.00329

###

- TEST SETTINGS: in isopropyl acetate, 293.15 K
ASSAY METRIC: solubility (mole fraction)

Looking up `Cc1nc2n(c(=O)c1CCN1CCC(c3noc4cc(F)ccc34)CC1)CCCC2` , I see its solubility (mole fraction) listed as 0.00125

###

- TEST SETTINGS: in methanol, 308.15 K
ASSAY METRIC: solubility (mole fraction)
Kindly provide the number alone.

Looking up `Cc1nc2n(c(=O)c1CCN1CCC(c3noc4cc(F)ccc34)CC1)CCCC2` , I see its solubility (mole fraction) listed as 0.00623

###

- TEST SETTINGS: in n-butyl acetate, 283.15 K
ASSAY METRIC: solubility (mole fraction)
Kindly provide the number alone.

Looking up `Cc1nc2n(c(=O)c1CCN1CCC(c3noc4cc(F)ccc34)CC1)CCCC2` , I see its solubility (mole fraction) listed as 0.00129

###

- TEST SETTINGS: in ethanol, 308.15 K
ASSAY METRIC: solubility (mole fraction)
Kindly provide the number alone.

Looking up `Cc1nc2n(c(=O)c1CCN1CCC(c3noc4cc(F)ccc34)CC1)CCCC2` , I see its solubility (mole fraction) listed as 0.00333

###

- TEST SETTINGS: in methanol, 298.15 K
ASSAY METRIC: solubility (mole fraction)
Kindly provide the number alone.

Looking up `Cc1nc2n(c(=O)c1CCN1CCC(c3noc4cc(F)ccc34)CC1)CCCC2` , I see its solubility (mole fraction) listed as 0.00407

Value source: BigSolDB 2.1
